Assign pIC50 to each entry below.
- SUBJECT_OF_TEST: CDK1/cyclinB1 (Homo sapiens, UniProt P06493)
- Sequence (P06493 whole entry): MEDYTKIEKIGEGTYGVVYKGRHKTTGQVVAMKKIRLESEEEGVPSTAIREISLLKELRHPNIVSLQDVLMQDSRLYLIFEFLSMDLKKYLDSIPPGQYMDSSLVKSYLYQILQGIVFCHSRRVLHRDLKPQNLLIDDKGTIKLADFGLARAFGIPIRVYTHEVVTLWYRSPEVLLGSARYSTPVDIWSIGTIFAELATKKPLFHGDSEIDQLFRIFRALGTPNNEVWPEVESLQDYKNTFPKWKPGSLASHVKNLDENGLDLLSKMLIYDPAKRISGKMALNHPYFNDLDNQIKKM
- Sequence (P14635 whole entry partner): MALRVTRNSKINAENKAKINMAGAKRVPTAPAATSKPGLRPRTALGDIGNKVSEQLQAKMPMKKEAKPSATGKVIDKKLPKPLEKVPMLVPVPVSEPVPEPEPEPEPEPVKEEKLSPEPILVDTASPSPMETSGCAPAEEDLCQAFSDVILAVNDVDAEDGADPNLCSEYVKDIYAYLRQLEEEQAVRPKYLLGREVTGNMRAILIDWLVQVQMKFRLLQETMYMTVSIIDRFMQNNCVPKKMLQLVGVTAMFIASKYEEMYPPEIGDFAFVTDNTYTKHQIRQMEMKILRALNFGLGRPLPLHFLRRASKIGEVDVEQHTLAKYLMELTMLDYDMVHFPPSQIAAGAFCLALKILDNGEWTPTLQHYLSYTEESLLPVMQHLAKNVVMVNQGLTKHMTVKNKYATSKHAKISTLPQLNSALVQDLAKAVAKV
- TEST_NAME: Cyclin-dependent kinase activity assay (continuous ATP coupling assay), CDK1/cyclinB1
- CONDITION_PARAMETERS: CDK1/cyclinB1 10 nM, ATP 200 μM, Histone1 copeptide 100 μM, 15 min preincubation, pH 7.5, 1% DMSO
pIC50: −log10 of the molar value.

In the examples that follow, each entry is paired with its recorded pIC50.
{"COMPOUND": "CNS(=O)(=O)c1ccc(Nc2ncc(C(F)(F)F)c(-n3cc(C(C)(C)CO)cn3)n2)cc1", "pIC50": "7.00 to 8.00"}
{"COMPOUND": "CNS(=O)(=O)c1ccc(Nc2ncc(C#N)c(-n3cc(CC(C)(C)O)cn3)n2)cc1", "pIC50": "≤ 7.00"}
{"COMPOUND": "O=S(=O)(NC1CC1)c1ccc(Nc2ncc(C(F)(F)F)c(-n3cccn3)n2)cc1", "pIC50": "≤ 7.00"}
{"COMPOUND": "CNS(=O)(=O)c1ccc(Nc2ncc(C(F)(F)F)c(-n3cc(C(C)(C)C(C)(C)O)cn3)n2)cc1", "pIC50": "7.00 to 8.00"}
{"COMPOUND": "CNS(=O)(=O)c1ccc(Nc2nccc(-n3cc(CC(C)(C)O)cn3)n2)cc1", "pIC50": "≤ 7.00"}
{"COMPOUND": "CCS(=O)(=O)N1C2CCC1CC(Nc1ncc(C(F)(F)F)c(-n3cccn3)n1)C2 (stereo not drawn)", "pIC50": "≤ 7.00"}

Take each entry in turn and give its pIC50.
1. CCS(=O)(=O)N1CC2(CC(Nc3ncc(C(F)(F)F)c(-n4cccn4)n3)C2)C1
2. O=S(=O)(CCCO)c1ccc(Nc2ncc(C(F)(F)F)c(-n3cccn3)n2)cc1
3. [2H]C([2H])([2H])NS(=O)(=O)c1ccc(Nc2ncc(C(F)(F)F)c(-n3cc(CCC(C)(C)O)cn3)n2)cc1
4. CNS(=O)(=O)c1ccc(Nc2ncc(C(F)(F)F)c(-n3cc(C(C)(C)C#N)cn3)n2)cc1
5. CC(C)(O)c1cnn(-c2nc(NC3CCN(S(C)(=O)=O)CC3)ncc2F)c1
6. CNS(=O)(=O)c1ccc(Nc2ncc(C(F)(F)F)c(-n3cc([C@H]4C[C@@](C)(O)C4)cn3)n2)cc1 (single isomer, unassigned)
7. CNS(=O)(=O)c1ccc(Nc2ncc(C(F)(F)F)c(-n3ccc(CC(C)(C)O)n3)n2)cc1

Out:
1: ≤ 7.00; 2: ≤ 7.00; 3: ≤ 7.00; 4: 7.00 to 8.00; 5: ≤ 7.00; 6: 7.00 to 8.00; 7: ≤ 7.00

Take each entry in turn and give its pIC50.
1. CNS(=O)(=O)c1ccc(Nc2ncc(C(F)(F)F)c(-n3cc([C@H]4CCCN4)cn3)n2)cc1
2. N#Cc1cnc(Nc2ccc(S(=O)(=O)NCCO)cc2)nc1-n1cccn1

Out:
["7.00 to 8.00", "≤ 7.00"]
